- Test system: 2Sp-muMax20 (muMax20 with two 2,6-bis(methyl)pyridine Cys staples)
- Protocol Text: PBM 8-mer E-score (E-score (rank enrichment, -0.5 to 0.5)); higher = stronger preferential binding
In all, about 33,000 sequences were measured (“E-score (rank enrichment, -0.5 to 0.5)”: median about -0.0043, highest 2% from about 0.24 on). Shown is part of a subset that was picked to be rich in the highest values.
# PBM 8-mer E-score values compiled below

| Sequence String | Measurement Target | PBM 8-mer E-score |
| --- | --- | --- |
| AGGATCAA | 2Sp-muMax20 (muMax20 with two 2,6-bis(methyl)pyridine Cys staples) | -0.0715 |
| ATGCTTTA | 2Sp-muMax20 (muMax20 with two 2,6-bis(methyl)pyridine Cys staples) | 0.138 |
| AAGTGGGG | 2Sp-muMax20 (muMax20 with two 2,6-bis(methyl)pyridine Cys staples) | 0.171 |
| TATGAATA | 2Sp-muMax20 (muMax20 with two 2,6-bis(methyl)pyridine Cys staples) | 0.169 |
| GCGAGGTA | 2Sp-muMax20 (muMax20 with two 2,6-bis(methyl)pyridine Cys staples) | -0.144 |
| CGGCATGC | 2Sp-muMax20 (muMax20 with two 2,6-bis(methyl)pyridine Cys staples) | 0.154 |
| AAGCATGT | 2Sp-muMax20 (muMax20 with two 2,6-bis(methyl)pyridine Cys staples) | 0.208 |
| GCGATGCC | 2Sp-muMax20 (muMax20 with two 2,6-bis(methyl)pyridine Cys staples) | -0.221 |
| ACTCCCCT | 2Sp-muMax20 (muMax20 with two 2,6-bis(methyl)pyridine Cys staples) | 0.182 |
| CCTCAGGA | 2Sp-muMax20 (muMax20 with two 2,6-bis(methyl)pyridine Cys staples) | -0.147 |
| ACTCCCCC | 2Sp-muMax20 (muMax20 with two 2,6-bis(methyl)pyridine Cys staples) | -0.187 |
| AACCTACT | 2Sp-muMax20 (muMax20 with two 2,6-bis(methyl)pyridine Cys staples) | -0.0133 |
| GCCGCAGA | 2Sp-muMax20 (muMax20 with two 2,6-bis(methyl)pyridine Cys staples) | -0.0428 |
| GGCTGGGA | 2Sp-muMax20 (muMax20 with two 2,6-bis(methyl)pyridine Cys staples) | -0.0185 |
| ACGACGCT | 2Sp-muMax20 (muMax20 with two 2,6-bis(methyl)pyridine Cys staples) | -0.0201 |
| GCCTCCCA | 2Sp-muMax20 (muMax20 with two 2,6-bis(methyl)pyridine Cys staples) | -0.214 |

###

- Tested on: 2Sp-muMax20 (muMax20 with two 2,6-bis(methyl)pyridine Cys staples)
- Protocol Text: PBM 8-mer E-score (E-score (rank enrichment, -0.5 to 0.5)); higher = stronger preferential binding
Over roughly 33,000 sequences, “E-score (rank enrichment, -0.5 to 0.5)” has its median near -0.0043; the highest 2% begin near 0.24. For the sample, the highest values were picked, then their nearest neighbours and some sequences at random.
Consider the reported PBM 8-mer E-score of an entry and match it to a band in group 1: < -0.005; group 2: ≥ -0.005 and < 0.1; group 3: ≥ 0.1

| Sequence String | Label |
| --- | --- |
| CCCAATTA | group 3 |
| ACGTGCAT | group 3 |
| CGGAAGAC | group 1 |
| CTCAAAGA | group 1 |
| CAGCCCCC | group 1 |
| CATGTTAG | group 3 |
| CAATAGAA | group 2 |
| TTGTACAA | group 3 |
| CATGTTTC | group 2 |
| CGGTGTGC | group 1 |
| CTTTCCGA | group 1 |
| ACGCTACA | group 3 |
| ATTTCAGA | group 2 |
| GTGTACAA | group 3 |
| TCGATTCA | group 2 |
| CCTCTTAG | group 1 |
| CAGTCTAG | group 1 |
| GATGTTTA | group 2 |
| GAGCTTAC | group 2 |
| CATAAAAA | group 3 |
| CTTGTTTA | group 1 |
| TCTATAAA | group 3 |
| AAAAGCGA | group 3 |
| ACGTGCTC | group 3 |
| CCCAGCCG | group 1 |
| AATGTTAC | group 2 |
| CCCTTTTC | group 1 |
| AATCCACT | group 1 |
| GATAAAAA | group 3 |
| AGTATAAA | group 3 |

###

- Tested on: 2Sp-muMax20 (muMax20 with two 2,6-bis(methyl)pyridine Cys staples)
- Protocol Text: PBM 8-mer E-score (E-score (rank enrichment, -0.5 to 0.5)); higher = stronger preferential binding
In all, about 33,000 sequences were measured (“E-score (rank enrichment, -0.5 to 0.5)”: median about -0.0043, highest 2% from about 0.24 on). The list comes from a sample in which the highest values are over-represented; it also holds close analogues and randomly drawn sequences.
Measured PBM 8-mer E-score, listed per entry for reference.
Measurement Name: PBM 8-mer E-score

| Sequence String | Data Value |
| --- | --- |
| CTTAACTA | 0.092 |
| ACTTAGCC | -0.0201 |
| ACCACGTA | -0.0775 |
| ATTAACTA | 0.16 |
| GTCAACTA | 0.0356 |
| ACCACGCG | 0.363 |
| AGCACGTA | 0.0888 |
| AAGGCCGG | -0.146 |
| CGAACCTA | -0.123 |
| AGCACGTG | 0.433 |
| CTTTCGTC | -0.0338 |
| CGTGACTA | 0.0126 |
| ATAAAAGG | 0.0278 |
| ATAAAGCA | 0.241 |
| AATCAACC | 0.157 |
| ACCACGCA | 0.0893 |
| AATAAATA | 0.0526 |
| ATCACGCA | 0.00557 |
| ATGGGGGA | -0.0138 |
| GATCAACA | -0.111 |
| AGATGCCG | -0.118 |
| TTATAAAA | 0.272 |
| CTAAGTTA | 0.0843 |
| AAGGCCTG | -0.212 |

###

- Test system: 2Sp-muMax20 (muMax20 with two 2,6-bis(methyl)pyridine Cys staples)
- Protocol Text: PBM 8-mer E-score (E-score (rank enrichment, -0.5 to 0.5)); higher = stronger preferential binding
The full ranking holds about 33,000 sequences; the median of “E-score (rank enrichment, -0.5 to 0.5)” is about -0.0043, and the highest 2% start at about 0.24. This excerpt belongs to a sample that is enriched for the highest values.

| Sequence String | PBM 8-mer E-score |
| --- | --- |
| CACGTGGC | 0.357 |
| AGAGCTAA | -0.0564 |
| ATATAAAT | 0.251 |
| GTATAAAA | 0.278 |
| CACGTGGG | 0.436 |
| GTATAAAC | 0.0938 |
| ATAAAAAT | 0.16 |
| CCGTGGTA | -0.156 |
| CTACTAGA | 0.05 |
| ATAAAAAC | 0.116 |
| ATATTTTA | 0.245 |
| AGTAGAAT | 0.286 |
| ATTAGAAT | 0.248 |
| AATAGGTA | 0.198 |
| AGTTGCAG | 0.122 |
| CACATCTG | -0.0474 |
| CCGAAGCA | 0.0942 |
| ACGTGGTA | 0.146 |
| CACACATA | 0.061 |
| CAATAGTC | -0.0201 |
| CTATTTAA | -0.0484 |

###

- Test system: 2Sp-muMax20 (muMax20 with two 2,6-bis(methyl)pyridine Cys staples)
- Protocol Text: PBM 8-mer E-score (E-score (rank enrichment, -0.5 to 0.5)); higher = stronger preferential binding
Over roughly 33,000 sequences, “E-score (rank enrichment, -0.5 to 0.5)” has its median near -0.0043; the highest 2% begin near 0.24. What follows is part of a selection rich in the highest values, with near analogues and random picks from the rest.
Reported PBM 8-mer E-score values for the following sequences.

| Sequence String | PBM 8-mer E-score |
| --- | --- |
| CAAGCTTA | -0.00639 |
| AGTGGGGG | -0.0461 |
| ATGTGGCG | 0.0809 |
| AACAGATC | 0.243 |
| CACAGGGC | -0.258 |
| TATCTTGA | 0.123 |
| GATCTTGA | 0.263 |
| TGACATAA | 0.128 |
| GGCGAGAC | -0.0185 |
| GAGGGTTA | 0.064 |
| GTACGCAA | -0.0841 |
| GTTCTCTA | -0.185 |
| CCAGACCC | -0.142 |
| CATCTTGA | 0.00562 |
| CTCTCAGA | -0.148 |
| CGCCTAGA | -0.246 |
| ATACGCAA | 0.308 |
| CACGCGGA | 0.357 |
| CTATTCAG | 0.00673 |
| AACGCGGC | -0.0876 |
| CGTGGGGA | 0.102 |
| CCCTCGCA | 0.109 |
| TCGTCCCA | 0.114 |
| GCAGACGC | -0.0631 |
| CATGGGGA | 0.124 |
| ACTTGGCG | -0.143 |
| CACGCGGC | 0.299 |
| AACAGATA | -0.0996 |
| CGAAGTGC | 0.0928 |
| GTTCCTCA | -0.0919 |
| CGCTACCA | -0.119 |
